tested on: HOP-92; experiment: NCI tumour cell line growth inhibition, 48 h
The source made the active and inactive calls. No stated cut-off is given here; in the data, active = GI50 up to about 1.1 µM and inactive = higher.
Field 'call' accepts 1.0 for active, 0.0 for inactive

For orientation, consider the following solved cases.
| Compound | Class assignment |
| --- | --- |
| Cc1ccc(C(=O)C2CC3(CCC2(O)c2ccc(C)cc2)CC(=O)Nc2ccccc2C3=O)cc1 (stereo not given) | 0.0 |
| O=c1[nH]nc(-c2ccccc2)n1/N=C\CC/C=N\n1c(-c2ccccc2)n[nH]c1=O | 0.0 |
| CC1=NC(C(C)C)C(=O)O1 (stereo not given) | 0.0 |
| CCOc1cc(NC(C)=O)ccc1C(=O)NNC(=O)c1ccccc1OC(C)=O | 0.0 |

For this compound, state the assay outcome: `CC(=O)Nc1ccc(OC/C(N)=N/NC(=O)c2ccncc2)cc1` 0.0

For this compound, state the assay outcome: `O=C1/C(=C\c2ccc(Cl)cc2Cl)Sc2scc(-c3ccc(O)c(O)c3)[n+]21` 0.0

###

system: DU-145; experiment: NCI tumour cell line growth inhibition, 48 h
Calls of active or inactive are those of the source. No stated cut-off is given here; in the data, active = GI50 up to about 1.1 µM and inactive = higher.
Field 'call' accepts 1 (yes) for active, 0 (no) for inactive

For orientation, consider the following solved cases.
| Molecule | Class assignment |
| --- | --- |
| COC(=O)c1cc(C)n2c1CS[C@@H]2c1ccccc1 | 0 (no) |
| O=C(c1ccccc1)N1CCC(Nc2cccnc2)O1 (stereo not given) | 0 (no) |
| COc1ccc(/C=c2\s/c(=C3/SC(=S)N(c4ccccc4)C3=O)n(-c3ccccc3)c2=O)cc1 | 0 (no) |
| COc1c(C)c(OC)c2c(c1O)[C@@H]1[C@@H]3Cc4c(OC)c(C)c(OC)c(O)c4[C@H](CNC(=O)c4ccc5ccccc5n4)N3[C@@H](C#N)[C@H](C2)N1C | 1 (yes) |

Please examine the following record next.
For this molecule, state the assay outcome: `COc1cc(C)cc2c(-c3c(O)cc(O)c4c3C[C@H](C)N[C@H]4C)cc(-c3cc(-c4c(O)cc(O)c5c4C[C@H](C)N[C@H]5C)c4cc(C)cc(OC)c4c3O)c(O)c12` 0 (no)

###

system: K562; assay: NCI tumour cell line growth inhibition, 48 h
Active and inactive are the calls of the source. Cut-off read from the data, not from the text of the source: active = GI50 up to about 1.1 µM and inactive = higher.
Field 'call' accepts 1 (active), -1 (inactive)

For orientation, consider the following solved cases.
| Compound | Class assignment |
| --- | --- |
| S=C1OC2CCCC[C@H]2O1 (stereo partly specified) | -1 |
| O=C1C=C(Nc2ccccc2C(=O)CC(=O)C(=O)Nc2ccc(Cl)cc2)c2ccccc2C1=O | -1 |
| Cc1c(O)nc(/C=C/C(=O)O)nc1C(=O)O | -1 |
| Cc1cc2ccccc2c[n+]1CC(=O)CC([O-])(C(F)(F)F)C(F)(F)F | -1 |
| [N-]=[N+]=Nc1cc(=O)[nH]c2ccccc12 | -1 |
| CC(=O)Nc1ccc(N2C(=O)/C(=C\c3cccc(Oc4ccccc4)c3)S(=O)(=O)C2c2ccccc2)cc1 (stereo unspecified) | -1 |
| O=C(O)/C=C(/C(=O)O)C12CCN3CC4=CCOC5CC(=O)NC1C5C4CC32 (stereo unspecified) | -1 |
| C1=C2C3=[N+](CCCC3)CC2Cc2sccc21 (stereo unspecified) | -1 |

For this compound, state the assay outcome: `O=c1[nH]nc(Cc2ccc(Cl)cc2)n1Nc1ccccc1` -1

For this compound, state the assay outcome: `CN(C)c1ccc(C=C2N=C(c3ccccc3)N(c3cc(C(=O)c4ccccc4)ccc3N3C(=O)/C(=C/c4ccc(N(C)C)cc4)N=C3c3ccccc3)C2=O)cc1` -1

For this compound, state the assay outcome: `COc1cc2c(cc1OC)C(=O)/C(=C/c1ccccc1)C2` -1

For this compound, state the assay outcome: `CC(=O)/C=C/c1c[nH]c(=O)[nH]c1=O` -1

For this compound, state the assay outcome: C#CCNC(Cc1c[nH]cn1)C(=O)O (stereo unspecified) -1

For this compound, state the assay outcome: `c1nnc(NCNc2nncs2)s1` -1

For this compound, state the assay outcome: `C[C@H](CCC(=O)NCCS(=O)(=O)O)[C@H]1CC[C@H]2[C@@H]3[C@H](O)C[C@@H]4C[C@H](O)CC[C@]4(C)[C@H]3CC[C@]12C` -1

For this compound, state the assay outcome: `Cc1ccc(/C=N/Nc2nncc3ccccc23)s1` -1

For this compound, state the assay outcome: `N=C(N)c1ccc(/C=C/c2ccc(C(=N)N)cc2)cc1` -1

For this compound, state the assay outcome: `CN(C)c1ccc(/C=c2/c3ccccc3n3nc4ccccc4c23)cc1` -1

For this compound, state the assay outcome: `O=C1NCCCc2nonc21` -1

For this compound, state the assay outcome: `CN(C)CCC(CCN(C)C)=NO` -1

For this compound, state the assay outcome: `C=C(C)C[C@H](Sc1nc2ccccc2s1)[C@H](C)O` -1

For this compound, state the assay outcome: `CCCCCCCCCCCCCCCCOP(=O)(O)Oc1ccc(/C=C\c2ccc(OP(=O)(O)OCCCCCCCCCCCCCCCC)cc2)cc1` -1

For this compound, state the assay outcome: [N-]=[N+]=NC(CCl)c1cn([C@H]2C[C@H](O)[C@@H](CO)O2)c(=O)[nH]c1=O (stereo partly specified) -1

###

test system: SK-OV-3; test: NCI tumour cell line growth inhibition, 48 h
The source made the active and inactive calls. Rule as the data show it: active = GI50 up to about 1.1 µM and inactive = higher. Numbered stars: 1 amine (or outer) side, 2 acyl side, 3 side chain; on linkers, the order of the positions; unused ones are H or OH. Bridge positions count the residues as written; N and C are the ends. Square brackets hold non-standard residues; d marks the D form. Peptide text beside a SMILES is read from it. X58 = COc1c(N[*:1])cccc1C(=O)O[C@H](C(=O)[C@H](C)C(=O)[*:2])C(C)C; X57 = CC(C)C[C@H](C(=O)[*:2])C(C)C(=O)C1CCCN1[*:1]; NMeY = CN[C@@H](Cc1ccc(O)cc1)C(=O)O; Lac = C[C@H](O)C(=O)O
Quick list: GI50 per entry.

Worked cases, answers included:
| Compound | Test value |
| --- | --- |
| C=C1C(=O)OC2CC(C)C3C=CC(=O)C3CC12 (centres undefined) | 16.1 µM (inactive) |
| C(=C\c1cc(CCc2nc3ccccc3[nH]2)n[nH]1)/c1ccccc1 | > 100 µM (inactive) |

What does the record list as GI50 for COc1ccc(C[C@H]2C(=O)O[C@H](C)[C@H](NC(=O)[C@@H](CC(C)C)C(C)C(=O)C3CCCN3C(=O)[C@H](C)O)C(=O)Nc3cccc(c3OC)C(=O)O[C@@H](C(C)C)C(=O)[C@H](C)C(=O)N[C@@H](CC(C)C)C(=O)N3CCC[C@H]3C(=O)N2C)cc1 (some centres undefined) (H-[Lac][X57]T[X58]LP[NMeY](Me); ester 3-C) ? > 12.5 µM (inactive)

###

Quick list: GI50 per entry.
test system: DU-145; assay: NCI tumour cell line growth inhibition, 48 h
The source made the active and inactive calls. Rule as the data show it: active = GI50 up to about 1.1 µM and inactive = higher.

| Compound | GI50 |
| --- | --- |
| O=C(NNCC(O)COc1ccccc1)c1ccccc1 (stereo not given) | > 100 µM (inactive) |
| Cc1cc(C)c2c(c1)C(=O)/C(=C/c1ccccc1C(=O)O)C2 | > 100 µM (inactive) |
| Cc1nnc2sc(Cl)nn12 | 34.4 µM (inactive) |
| O=C(O)CN1C(=O)CN=C(c2ccccn2)c2cc(Cl)ccc21 | > 100 µM (inactive) |

What does the record list as GI50 for `Cc1cc(N(CCC#N)CCC#N)ccc1C(/N=N/c1ccc([N+](=O)[O-])cc1)=N\NC(=O)c1cc(Cl)ccc1C(=O)c1ccccc1` ? 10.9 µM (inactive)

What does the record list as GI50 for COc1ccc(C(OCC2OC(n3ccc(NC(=O)c4ccccc4)nc3=O)C(O)C2O)(c2ccccc2)c2ccccc2)cc1 (stereo not given) ? 3.37 µM (inactive)

###

system: A498; experiment: NCI tumour cell line growth inhibition, 48 h
Calls of active or inactive are those of the source. Rule as the data show it: active = GI50 up to about 1.1 µM and inactive = higher.
Quick list: GI50 per entry.

# value lookup — system A498, readout GI50, item COc1cc2c(cc1OC)[C@H]1C(COC(=O)c3ccccc3)CS/C(=N/c3ccccc3)N1CC2 (stereo not given in full) 48.9 µM (inactive)

# value lookup — system A498, readout GI50, item CC(=O)Nc1ccc(N2C(=O)/C(=C\c3cccc(Oc4ccccc4)c3)S(=O)(=O)C2c2ccccc2)cc1 (stereo not given) > 100 µM (inactive)

# value lookup — system A498, readout GI50, item `COc1cc2c(cc1OC)C(=O)/C(=C/c1ccccc1)C2` 4.54 µM (inactive)

# value lookup — system A498, readout GI50, item Cc1cn(C2CC(N=[N+]=[N-])C(CO[Si](C)(C)C(C)(C)C)O2)c(=O)[nH]c1=O (stereo not given) 16.1 µM (inactive)

# value lookup — system A498, readout GI50, item `CC(=O)OCCOCNC(=S)N/N=C/c1ccc(Br)s1` > 100 µM (inactive)

# value lookup — system A498, readout GI50, item CC1(C)OC2COC3(CNO)OC(C)(C)OC3C2O1 (stereo not given) > 100 µM (inactive)

# value lookup — system A498, readout GI50, item `Cc1cc(C)c(/C=N/NS(=O)(=O)c2ccccc2)c(C)c1` 56.1 µM (inactive)

Data credit: ChEMBL document CHEMBL1201862
